experiment: Primary qHTS for inhibitors of nuclear receptor binding SET domain protein 2 (NSD2) in an RCH-ACV wild type WT cells (2C) (AID 1645877); note: nearly all actives have a fitted effect of over 70% in size
condition-context: RCH-ACV (leukaemia line) NSD2 WT (2C) viability, CellTiter-Glo, 72 h; series mostly up to 44.9 µM
Records with an inconclusive call do not appear. Activity calls are given as the source filed them. Calls come from the whole dose curve; as a rule, active = well fitted inhibition curve with a large enough effect; inconclusive = small, poorly fitted or top-dose-only effect; inactive = no such curve, though single readings can be large or run the other way.
Classes used: 1 (active), -1 (inactive)

compound: CC(=O)NCCc1c[nH]c2ccccc12
category: -1

compound: CC(C)(C)NC[C@H](O)c1ccc(O)cc1Cl
category: -1

compound: O=S(=O)(CC1CS1)c1ccc(Oc2ccccc2)cc1 (stereo not given)
category: 1

compound: CC(C)Oc1cccc(NC(=O)c2ccccc2C(F)(F)F)c1
category: 1

compound: O=C(O)CCCOc1ccc(Cl)cc1Cl
category: -1

compound: O=C(O)COc1ccccc1
category: -1

compound: CCN1C[C@]2(OC(=O)c3ccccc3NC(C)=O)CC[C@H](OC)[C@@]34[C@H]5CC6[C@@H](OC)C[C@](O)(C(C[C@@H]23)[C@@H]14)[C@@]5(O)[C@@H]6OC
category: -1

compound: O=C(O)CNC(=O)c1c(O)c2ccccc2n(Cc2ccccc2)c1=O
category: -1

compound: COC[C@H]1OC(=O)c2coc3c2[C@@]1(C)C1=C(C3=O)[C@@H]2CC[C@H](O)[C@@]2(C)C[C@@H]1OC(C)=O
category: 1

compound: Nc1ccc(Cl)cc1
category: -1

compound: COc1ccc2c(c[n+](C)c3c4cc5c(cc4ccc23)OCO5)c1OC
category: -1

compound: O=c1[nH]c2ccccc2n1C1CCN(Cc2ccc(-c3[nH]c4cc5ncnc5cc4nc3-c3ccccc3)cc2)CC1
category: 1

compound: CN1[C@H]2CC(O)C[C@H]1[C@H]1O[C@H]12 (stereo not given in full)
category: -1

compound: COCCOCCO
category: -1

compound: COc1nn(CSP(=S)(OC)OC)c(=O)s1
category: 1

compound: CN[C@@H](C)[C@H](O)c1ccccc1
category: -1

compound: CC(N[C@H]1C[C@H]1c1ccccc1)c1ccc2c(c1)OCCO2 (stereo not given in full)
category: -1

compound: Nc1ccc(Sc2ccc(N)cc2)cc1
category: 1

compound: Cc1cc(O)ccc1Cl
category: -1

compound: S=C(NC1CCCCC1)N1CCC(c2cnc[nH]2)CC1
category: -1

compound: CC(C)NCC(O)c1ccc([N+](=O)[O-])cc1 (stereo not given)
category: -1

compound: c1cc2ccc3cccc4ccc(c1)c2c34
category: -1

compound: O=C(Oc1ccc([N+](=O)[O-])cc1)N1CCN(Cc2cccc(Oc3ccccc3)c2)CC1
category: -1

compound: COC(=O)[C@@H](N)CCCN=C(N)N[N+](=O)[O-]
category: -1

compound: Fc1cc(Br)ccc1CBr
category: -1

Where do the numbers come from? From PubChem BioAssay (NCATS).
